Biological target: EGFR Del/T790M Ba/F3 cells (Homo sapiens, UniProt P00533, T790M, cells depend on it, form not given)
Assay: Ba/F3 cell growth inhibition (MTS assay), EGFR Del/T790M
Format: cell-based
Details: Assay 1; Del/T790M; read-out: EGFR Ba/F3 cells IC 50 (nM) Assay 1 Del/T790M
Catalogue of IC50 values
Could you give me the number in nM? Just the number is fine.

Challenge: IC50 for COc1ccc(NC(=O)/C=C/CN(C)C)cc1Nc1cc(N(C)C(=O)Nc2ccccc2)ncn1 [Compound 20A] ?
Response given: 211

Challenge: Query C=CC(=O)Nc1cccc(N(C(=O)NCc2ccccc2)c2cc(Nc3ccc(N4CCN(C)CC4)cc3OC)nc(Cl)n2)c1 [Compound 78A] next
Response given: 68.2

Challenge: Query C=CC(=O)Nc1cccc(N(C(=O)Oc2ccccc2)c2ccnc(Nc3ccc(N4CCN(C)CC4)cc3OC)n2)c1 [Compound 10A] next
Response given: 22.9

Challenge: Query C=CC(=O)Nc1cccc(N(C(=O)Nc2ccccc2)c2cc(Nc3ccc(N4CCN(C)CC4)cc3OC)ncn2)c1 next
Response given: 19

Challenge: Query C=CC(=O)Nc1ccc(OC)c(Nc2cc(N(C)C(=O)Nc3ccccc3)ncn2)c1 [Compound 74A] next
Response given: 278

Next:
Challenge: IC50 for C=CC(=O)Nc1cccc(Nc2cc(N(C)C(=O)NCc3ccccc3)ncn2)c1 [Compound 17A] ?
Response given: 682
